All values here come from patent US20210388087A1.

biological target: T1, Human CD137 ECD (human); assay: Biacore SPR, vs parent H183/L072
T1 construct: entry includes C-terminal His-tag and biotin acceptor peptide; also called human CD137 extracellular domain; 4-1BB
T1 sequence (chain, as listed by the source limits assumed): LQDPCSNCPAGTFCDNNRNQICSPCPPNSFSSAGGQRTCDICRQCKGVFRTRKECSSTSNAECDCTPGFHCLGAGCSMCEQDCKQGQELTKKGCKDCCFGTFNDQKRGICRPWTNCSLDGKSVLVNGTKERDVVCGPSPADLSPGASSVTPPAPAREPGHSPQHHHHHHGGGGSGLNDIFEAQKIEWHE
Values of fold change of affinity strictly less than 0.4 fold map to t, and values of at least 0.4 fold map to f.

H183/L072 VL N28V (antibody, name in Kabat numbering, V domains shown, Dual-Ig) VH: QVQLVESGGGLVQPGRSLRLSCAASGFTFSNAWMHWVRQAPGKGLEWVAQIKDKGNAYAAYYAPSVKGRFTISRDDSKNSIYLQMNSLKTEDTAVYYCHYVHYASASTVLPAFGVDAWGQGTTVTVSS VL: DIVMTQSPLSLPVTPGEPASISCQASQELVHMVRNTYLHWYQQKPGQAPRLLIYKVSNRFPGVPDRFSGSGSGTDFTLKISRVEAEDVGVYYCAQGTSVPFTFGQGTKLEIK: t
H183/L072 VL L27bG (antibody, name in Kabat numbering, V domains shown, Dual-Ig) VH: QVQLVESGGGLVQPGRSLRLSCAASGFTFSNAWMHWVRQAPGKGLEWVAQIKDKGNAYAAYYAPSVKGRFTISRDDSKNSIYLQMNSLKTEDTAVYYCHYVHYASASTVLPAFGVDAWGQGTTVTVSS VL: DIVMTQSPLSLPVTPGEPASISCQASQEGVHMNRNTYLHWYQQKPGQAPRLLIYKVSNRFPGVPDRFSGSGSGTDFTLKISRVEAEDVGVYYCAQGTSVPFTFGQGTKLEIK: t
H183/L072 VL H27dN (antibody, name in Kabat numbering, V domains shown, Dual-Ig) VH: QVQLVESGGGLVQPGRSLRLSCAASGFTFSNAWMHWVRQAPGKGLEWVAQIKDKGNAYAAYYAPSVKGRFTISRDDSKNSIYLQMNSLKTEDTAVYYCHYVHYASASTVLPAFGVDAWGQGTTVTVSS VL: DIVMTQSPLSLPVTPGEPASISCQASQELVNMNRNTYLHWYQQKPGQAPRLLIYKVSNRFPGVPDRFSGSGSGTDFTLKISRVEAEDVGVYYCAQGTSVPFTFGQGTKLEIK: f

Then this binder:
Problem: Is fold change of affinity strictly under 0.4 fold for the entry H183/L072 VL Q27R (antibody, name in Kabat numbering, V domains shown, Dual-Ig) VH: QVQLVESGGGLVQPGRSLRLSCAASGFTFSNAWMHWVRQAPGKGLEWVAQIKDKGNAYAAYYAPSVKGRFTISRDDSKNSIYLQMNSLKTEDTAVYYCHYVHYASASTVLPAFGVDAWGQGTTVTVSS VL: DIVMTQSPLSLPVTPGEPASISCQASRELVHMNRNTYLHWYQQKPGQAPRLLIYKVSNRFPGVPDRFSGSGSGTDFTLKISRVEAEDVGVYYCAQGTSVPFTFGQGTKLEIK ?
Result: f
